Target: T1, NDC80 Peptide A … / HLA-A*02:01 complex (human)
T1 construct: whole, on cells; On peptide-pulsed T2 cells (HLA-A*02:01+); also called NDC80/HLA-A*02:01 complex; NDC80/MHC I
Assay: FACS, scFv phage on peptide-loaded T2 cells

binder	binding result
Clone 9 scFv phage clone (scFv, V domains shown) VH: QVQLQESGPGLVKPPGTLSLTCAVSGGSISSSNWWSWVRQPPGKGLEWIGEIYHSGSTNYNPSLKSRVTISVDKSKNQFSLKLSSVTAADTAVYYCARYEQGSHDSWGQGTLVTVSS VL: QSVLTQPPSVSAAPGQKVTISCSGSSSNIGSNYISWYQQLPGTAPKLLIYDNSKRPSGIPDRFSGFKSGTSATLGITGLQTGDEADYYCGTWDSSLSAYVFGSGTKVTVLG	binds
Clone 11 scFv phage clone (Clone 11 scFv) (scFv) scFv: NFMLTQPHSVSESPGKTVTISCTRSSGSIASNYVQWYQQRPGSAPTTVIYEDNQRPSGVPDRFSGSIDSSSNSASLTISGLKTEDEADYYCQSYDSSNVVFGGGTKLTVLGSRGGGGSGGGGSGGGGSLEMAQVQLVQSGAEVRKPGASVKVSCKASGYSFTSNGITWVRQAPGQGLEWMGWISGYNANTRYAQEFQARVTMTTDTSASTAYMELRSLRSDDTAVYYCARHAYWGGDSDYWGQGTLVTVSS	binds
Clone 14 scFv phage clone (Clone 14 scFv) (scFv) scFv: QSVLTQPPSVSAAPGQRVTISCSGSTSNIGSNYVSWYQQFPGTAPKLLIYDSDKRISGIPDRFSGSKSGTSATLGITGLQTGDEADYYCGTWDSSLTVGVFGGGTKVTVLGSRGGGGSGGGGSGGGGSLEMAQLQLQESGPGLVKPSGTLSLTCAVSGGSISSSNWWSWVRQPPGKGLEWIGEIYHSGSTNYNPSLKSRVTISVDKSKNQFSLKLSSVTAADTAVYYCARYFGQKYDYWGQGTLVTVSS	binds
